All values here come from the Deep4Chem optical property database.

assay_overview: solvent given as SMILES
condition_context: in ClCCl
property_measured: emission maximum (nm)
Dear colleague, please return just the value in nm, with no unit written.

molecule	numeric_readout
CCCCCCCCCCCCN1C(=O)c2c(c3ccc4cc(-c5ccc(-c6ccccc6)cc5)c(OC)cc4c3c3c2ccc2cc(-c4ccc(-c5ccccc5)cc4)c(OC)cc23)C1=O	527
O=S1(=O)c2ccc(-c3ccc(-n4c5ccccc5c5ccccc54)cc3)cc2C2(c3ccccc3-c3ccccc32)c2cc(-c3ccc(-n4c5ccccc5c5ccccc54)cc3)ccc21	432
CCCCCCN1C(=O)c2cccc3c(-c4ccc(-c5cc(-c6cccc7ccccc67)nn5-c5ccccc5)s4)ccc(c23)C1=O	515

Task item: Entry c1ccc(N(c2ccccc2)c2ccc(-n3ccc4cc(-c5ccc6c(c5)C(c5ccccc5)(c5ccccc5)c5ccccc5-6)ccc43)cc2)cc1 has what emission maximum?
Reply: 380

Task item: Entry Oc1ccccc1-c1nc2c(c3c1-c1ccccc1CC3)-c1ccccc1CC2 has what emission maximum?
Reply: 413

Task item: Entry CC1(C)CC(/C=C/c2ccc(-n3cncn3)cc2)=CC(=C(C#N)C#N)C1 has what emission maximum?
Reply: 518

Task item: Entry CC(C)(C)C1CCC(=CS/C=C/c2ccc(/C=C/SC=C3CCC(C(C)(C)C)CC3)cc2)CC1 (stereo not drawn) has what emission maximum?
Reply: 422

Task item: Entry Oc1c(-c2cccs2)cccc1-c1nc2ccccc2s1 has what emission maximum?
Reply: 585

* * *

assay_overview: solvent given as SMILES
condition_context: in CC#N
property_measured: emission maximum
Just the number plus its unit, please.

structure_as_smiles	emission maximum
c1ccc2c(c1)[nH]c1ccccc12	340 nm
CC1(C)CC(NCc2ccc3ccc4cccc5ccc2c3c45)CC(C)(C)N1[O]	376 nm
c1ccc(C[n+]2cc3ccc4c[n+](Cc5ccccc5)cc5ccc(c2)c3c45)cc1	427 nm
CCC1(CC)c2ccccc2-c2c1c1c(c3c2C(CC)(CC)c2cc(B(c4c(C)cc(C)cc4C)c4c(C)cc(C)cc4C)ccc2-3)C(CC)(CC)c2ccccc2-1	404 nm

Switching to the query record.
Task item: Entry COC1=C/C(=C\C=C2C=CN(Cc3ccc(Br)cc3)C=C2)C=CC1=O has what emission maximum?
Reply: 665 nm

* * *

assay_overview: solvent given as SMILES
condition_context: in ClC(Cl)(Cl)Cl
Please respond with MET when measured emission maximum is strictly beneath 500 nm, and with NOT MET in all other cases.

Past entries and their recorded results:
structure_as_smiles	assigned_category
CN(C)c1ccc(/C=C2\CCCC2=O)cc1	MET
O=C(O)CCCc1cc(C#Cc2ccccc2)c2ccc3c(C#Cc4ccccc4)cc(C#Cc4ccccc4)c4ccc1c2c34	MET
COc1ccc(/C=C/C2=CC(/C=C/c3ccc(OC)c4ccccc34)=[O+][B-](F)(F)O2)c2ccccc12	NOT MET
CC1(C)Nc2ccccc2-c2[nH]c3ccccc3c(=O)c21	MET
O=C1O[B-]2(OC1=O)OC(c1ccccc1)=CC(c1ccc3ccccc3c1)=[O+]2	MET

Task item: Decide: emission maximum of COc1ccc2c(=O)c3c([nH]c2c1)-c1cc(Cl)ccc1NC3(C)C strictly below 500 nm?
Reply: MET

Task item: Decide: emission maximum of CCCCNc1ccc(NCCCC)c2c1C(=O)c1ccccc1C2=O strictly below 500 nm?
Reply: NOT MET

Task item: Decide: emission maximum of CC(=O)[B-]1(C(C)=O)OC(c2ccccc2)=CC(c2ccc3ccccc3c2)=[O+]1 strictly below 500 nm?
Reply: MET
